Source listed as the Human Domainome abundance scans (Beltran et al. 2025).

Exercise: state measured abundance fitness for each of the variants provided.
B1: Unconventional myosin-Ie, residues 1051 to 1108; numbered along this chain, Q12965 (parent)
chain: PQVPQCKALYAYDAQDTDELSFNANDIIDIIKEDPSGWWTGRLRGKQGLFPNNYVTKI

# Variants of: B1
# experiment: abundance fitness (aPCA) (normalised: wild type 0, dead -1); higher = more abundant; growth selection in yeast, the domain comes from the species named
# appliedConditions: Homo sapiens
One number for each entry.

{"variantId": "Q2C", "abundance fitness": -0.193}
{"variantId": "N25P", "abundance fitness": -0.878}
{"variantId": "E19V", "abundance fitness": -0.382}
{"variantId": "F22S", "abundance fitness": -0.766}

Could I get abundance fitness for every one of these entries?
1. W39S
2. K7G

Result string:
1: -0.138; 2: -0.943
